Measured values drawn from ChEMBL document CHEMBL1201862 for this set.

# Assayed Target: Kappa-type opioid receptor (Homo sapiens)
# Sequence (P41145 whole entry): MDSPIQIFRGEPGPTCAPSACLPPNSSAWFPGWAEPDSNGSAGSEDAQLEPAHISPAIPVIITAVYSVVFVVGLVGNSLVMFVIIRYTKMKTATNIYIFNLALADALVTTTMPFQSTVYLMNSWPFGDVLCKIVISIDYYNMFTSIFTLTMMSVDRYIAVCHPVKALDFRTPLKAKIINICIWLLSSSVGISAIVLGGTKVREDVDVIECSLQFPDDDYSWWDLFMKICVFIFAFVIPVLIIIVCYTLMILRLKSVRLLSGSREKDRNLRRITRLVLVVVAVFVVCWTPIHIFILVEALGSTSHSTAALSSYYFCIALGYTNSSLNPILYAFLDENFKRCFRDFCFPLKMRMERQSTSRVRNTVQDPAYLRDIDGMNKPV
# Type: functional

>  <Query Smiles>
O=C(c1ccccn1)N(Cc1ccco1)C1(C(=O)NC2CCCCC2)CCCCC1

>  <Assayed Target>
Kappa-type opioid receptor (Homo sapiens)

>  <Quantity Unit>
nM

>  <EC50>
220

$$$$

###

# Assayed Target: Dual specificity tyrosine-phosphorylation-regulated kinase 1A (Rattus norvegicus)
# Type: biochemical, Homo sapiens
Calls of active or inactive are those of the source.
Reported Endpoint: AC50

>  <Query Smiles>
O=C(O)c1ccc(/C=N/Nc2ccc(C(F)(F)F)cn2)cc1

>  <Assayed Target>
Dual specificity tyrosine-phosphorylation-regulated kinase 1A (Rattus norvegicus)

>  <Reported Endpoint>
AC50

>  <Reported Result>
7.95 µM (active)

$$$$
>  <Query Smiles>
COc1cc(C=C2C(=O)c3ccccc3C2=O)ccc1O

>  <Assayed Target>
Dual specificity tyrosine-phosphorylation-regulated kinase 1A (Rattus norvegicus)

>  <Reported Endpoint>
AC50

>  <Reported Result>
0.585 µM (active)

$$$$
>  <Query Smiles>
c1ccc2c(-c3ccncc3)c[nH]c2c1

>  <Assayed Target>
Dual specificity tyrosine-phosphorylation-regulated kinase 1A (Rattus norvegicus)

>  <Reported Endpoint>
AC50

>  <Reported Result>
2.41 µM (active)

$$$$
>  <Query Smiles>
O=C1NC(=O)/C(=C\c2ccc(Br)o2)S1

>  <Assayed Target>
Dual specificity tyrosine-phosphorylation-regulated kinase 1A (Rattus norvegicus)

>  <Reported Endpoint>
AC50

>  <Reported Result>
4.62 µM (active)

$$$$
